Where do the numbers come from? From the supplement of paper PMC11061612.

- Tested on: NCI-H522 (Lung Adenocarcinoma)
- procedure.summary: Bliss excess, mean over the matrix (fraction); higher = more synergy
reported.metric: Bliss excess
One number for each entry.

Take a look at these entries with their results.
compound: COc1nnc2ccc(N3CCC(c4ccc(OCCN5CCN(C)C(=O)[C@H]5C)cc4)CC3)nn12 [AZD5153] + CC1(C)CCC(CN2CCN(c3ccc(C(=O)NS(=O)(=O)c4ccc(NCC5CCOCC5)c([N+](=O)[O-])c4)c(Oc4cnc5[nH]ccc5c4)c3)CC2)=C(c2ccc(Cl)cc2)C1 [Venetoclax] (first compound max 1 µM, 7x7, partner max 1 µM)
Bliss excess: -0.0711
//
compound: COc1nnc2ccc(N3CCC(c4ccc(OCCN5CCN(C)C(=O)[C@H]5C)cc4)CC3)nn12 [AZD5153] + CCN(CCO)CCCOc1ccc2c(Nc3cc(CC(=O)Nc4cccc(F)c4)[nH]n3)ncnc2c1 [AZD2811] (first compound max 1 µM, 7x7, partner max 1 µM)
Bliss excess: -0.115

Field: next compound
Incoming: Any idea what its Bliss excess is? The compound is Cn1cnc2c(F)c(Nc3ccc(Br)cc3Cl)c(C(=O)NOCCO)cc21 [Selumetinib] + C[C@@H]1COCCN1C2=NC(=NC(=C2)C3(CC3)[S@](=N)(=O)C)C4=C5C=CNC5=NC=C4 [AZD6738] (first compound max 10 µM, 7x7, partner max 10 µM)
Outgoing: -0.0653

---

- System: MOG-G-UVW (Low Grade Glioma)
- procedure.summary: Bliss excess, mean over the matrix (fraction); higher = more synergy
Consider the following molecules; for each one, report its Bliss excess.
One number for each entry.

Take a look at these entries with their results.
molecule: CC1(C)CCC(CN2CCN(c3ccc(C(=O)NS(=O)(=O)c4ccc(NCC5CCOCC5)c([N+](=O)[O-])c4)c(Oc4cnc5[nH]ccc5c4)c3)CC2)=C(c2ccc(Cl)cc2)C1 [Venetoclax] + COc1cc(Nc2ncc3c(n2)-c2ccc(Cl)cc2C(c2c(F)cccc2OC)=NC3)ccc1C(=O)O [Alisertib] (first compound max 1 µM, 7x7, partner max 10 µM)
reported.metric: Bliss excess
endpoint.value: -0.0265
//
molecule: CN(CCO)CC[C@H](CSc1ccccc1)Nc1ccc(S(=O)(=O)NC(=O)c2ccc(N3CCC([C@@H](O)c4ccccc4-c4ccc(Cl)cc4)CC3)cc2)cc1S(=O)(=O)C(F)(F)F [AZD4320] + C=CCn1c(=O)c2cnc(Nc3ccc(N4CCN(C)CC4)cc3)nc2n1-c1cccc(C(C)(C)O)n1 [AZD1775] (first compound max 1 µM, partner max 1 µM)
reported.metric: Bliss excess
endpoint.value: -0.0193
//
molecule: CN(CCO)CC[C@H](CSc1ccccc1)Nc1ccc(S(=O)(=O)NC(=O)c2ccc(N3CCC([C@@H](O)c4ccccc4-c4ccc(Cl)cc4)CC3)cc2)cc1S(=O)(=O)C(F)(F)F [AZD4320] + CCN(CCO)CCCOc1ccc2c(Nc3cc(CC(=O)Nc4cccc(F)c4)[nH]n3)ncnc2c1 [AZD2811] (first compound max 1 µM, 7x7, partner max 1 µM)
reported.metric: Bliss excess
endpoint.value: 0.03
//
molecule: Cc1cc2ncnn2cc1Nc1ncc2c(n1)n(C1CCOCC1)c(=O)n2C [AZD7648] + C[C@@H]1COCCN1C2=NC(=NC(=C2)C3(CC3)[S@](=N)(=O)C)C4=C5C=CNC5=NC=C4 [AZD6738] (first compound max 10 µM, 7x7, partner max 10 µM)
reported.metric: Bliss excess
endpoint.value: 0.0717
//
molecule: Cc1c2c(nn1C)CSCc1cc(n(C)n1)CSc1cc(c3ccccc3c1)OCCCc1c(C(=O)O)n(C)c3c-2c(Cl)ccc13 [AZD5991] + CC(=O)O[C@H]1C(=O)[C@@]2(C)[C@H]([C@H](OC(=O)c3ccccc3)[C@]3(O)C[C@H](OC(=O)[C@H](O)[C@@H](NC(=O)c4ccccc4)c4ccccc4)C(C)=C1C3(C)C)[C@]1(OC(C)=O)CO[C@@H]1C[C@@H]2O [Paclitaxel] (first compound max 1 µM, 7x7, partner max 3 µM)
reported.metric: Bliss excess
endpoint.value: 0.0217

Field: next molecule
Incoming: Any idea what its Bliss excess is? The molecule is Cc1c2c(nn1C)CSCc1cc(n(C)n1)CSc1cc(c3ccccc3c1)OCCCc1c(C(=O)O)n(C)c3c-2c(Cl)ccc13 [AZD5991] + Cn1cnc2c(F)c(Nc3ccc(Br)cc3Cl)c(C(=O)NOCCO)cc21 [Selumetinib] (first compound max 1 µM, 7x7, partner max 3 µM)
Outgoing: -0.0869

---

- Tested on: ME-180 (Cervical Carcinoma)
- procedure.summary: combination Emax (second highest fraction inhibited in the dose matrix, 72 h); higher = more inhibition; extreme values may be limits of the assay
Consider the following molecules; for each one, report its combination Emax.
Give bare numbers.

molecule: Cn1cnc2c(F)c(Nc3ccc(Br)cc3Cl)c(C(=O)NOCCO)cc21 [Selumetinib] + CC(C)n1c(=O)n(C)c2cnc3cc(F)c(-c4ccc(OCCCN5CCCCC5)nc4)cc3c21 [AZD1390] (first compound max 10 µM, 7x7, partner max 0.3 µM)
combination Emax: 0.209

Field: next molecule
Incoming: Any idea what its combination Emax is? The molecule is CC1(C)CCC(CN2CCN(c3ccc(C(=O)NS(=O)(=O)c4ccc(NCC5CCOCC5)c([N+](=O)[O-])c4)c(Oc4cnc5[nH]ccc5c4)c3)CC2)=C(c2ccc(Cl)cc2)C1 [Venetoclax] + CCN(CCO)CCCOc1ccc2c(Nc3cc(CC(=O)Nc4cccc(F)c4)[nH]n3)ncnc2c1 [AZD2811] (first compound max 1 µM, 7x7, partner max 1 µM)
Outgoing: 0.243

---

- Test system: KOPN-8 (B-Lymphoblastic Leukemia)
- procedure.summary: combination Emax (second highest fraction inhibited in the dose matrix, 72 h); higher = more inhibition; extreme values may be limits of the assay
Consider the following compounds; for each one, report its combination Emax.

compound: CCN(CCO)CCCOc1ccc2c(Nc3cc(CC(=O)Nc4cccc(F)c4)[nH]n3)ncnc2c1 [AZD2811] + C[C@@H]1COCCN1C2=NC(=NC(=C2)C3(CC3)[S@](=N)(=O)C)C4=C5C=CNC5=NC=C4 [AZD6738] (first compound max 1 µM, 7x7, partner max 10 µM)
endpoint.value: 0.855

Incoming: Any idea what its combination Emax is? The compound is CC(=O)c1c(C)c2cnc(Nc3ccc(N4CCNCC4)cn3)nc2n(C2CCCC2)c1=O [Palbociclib] + Cc1c2c(nn1C)CSCc1cc(n(C)n1)CSc1cc(c3ccccc3c1)OCCCc1c(C(=O)O)n(C)c3c-2c(Cl)ccc13 [AZD5991] (first compound max 10 µM, 7x7, partner max 1 µM)
Outgoing: 0.917

---

- Test system: A4-Fuk (B-Lymphoblastic Leukemia)
- procedure.summary: combination Emax (second highest fraction inhibited in the dose matrix, 72 h); higher = more inhibition; extreme values may be limits of the assay
Consider the following compounds; for each one, report its combination Emax.
One number for each entry.

compound: NC1(C(=O)N[C@@H](CCO)c2ccc(Cl)cc2)CCN(c2ncnc3[nH]ccc23)CC1 [Capivasertib] + C[C@@H]1COCCN1C2=NC(=NC(=C2)C3(CC3)[S@](=N)(=O)C)C4=C5C=CNC5=NC=C4 [AZD6738] (first compound max 10 µM, 7x7, partner max 10 µM)
endpoint.value: 0.942
--
compound: C[C@@H](Nc1cc(F)cc(F)c1)c1cc(C(=O)N(C)C)cc2c(=O)cc(N3CCOCC3)oc12 [AZD8186] + CC(=O)c1c(C)c2cnc(Nc3ccc(N4CCNCC4)cn3)nc2n(C2CCCC2)c1=O [Palbociclib] (first compound max 10 µM, 7x7, partner max 10 µM)
endpoint.value: 0.706
--
compound: CCc1c2c(nc3ccc(O)cc13)-c1cc3c(c(=O)n1C2)COC(=O)[C@]3(O)CC [SN-38] + CN(C)CCCOc1ccc(-c2ccc3ncc4c(c3c2)n(C2CCOCC2)c(=O)n4C)cn1 [AZD0156] (first compound max 0.3 µM, 7x7, partner max 1 µM)
endpoint.value: 0.923

Field: next compound
Incoming: Any idea what its combination Emax is? The compound is C[C@@H](Oc1cc(-c2cnn(C3CCNCC3)c2)cnc1N)c1c(Cl)ccc(F)c1Cl [Crizotinib] + Cn1cnc2c(F)c(Nc3ccc(Br)cc3Cl)c(C(=O)NOCCO)cc21 [Selumetinib] (first compound max 10 µM, 7x7, partner max 10 µM)
Outgoing: 0.942

---

- Tested on: SW872 (Other Solid Carcinomas)
- procedure.summary: Bliss excess, mean over the matrix (fraction); higher = more synergy
// thresholds for Bliss excess classes: low bracket (below -0.007), middle bracket (-0.007 to below 0.02), high bracket (0.02 or more)

The following compounds have reported results that may help.
compound: C[C@@H](Oc1cc(-c2cnn(C3CCNCC3)c2)cnc1N)c1c(Cl)ccc(F)c1Cl [Crizotinib] + CC1=C(C(=CC=C1)Cl)NC(=O)C2=CN=C(S2)NC3=CC(=NC(=N3)C)N4CCN(CC4)CCO [Dasatinib] (first compound max 10 µM, 7x7, partner max 2 µM)
category.label: high bracket
//
compound: CC1(C)CCC(CN2CCN(c3ccc(C(=O)NS(=O)(=O)c4ccc(NCC5CCOCC5)c([N+](=O)[O-])c4)c(Oc4cnc5[nH]ccc5c4)c3)CC2)=C(c2ccc(Cl)cc2)C1 [Venetoclax] + Cn1cnc2c(F)c(Nc3ccc(Br)cc3Cl)c(C(=O)NOCCO)cc21 [Selumetinib] (first compound max 1 µM, 7x7, partner max 3 µM)
category.label: low bracket
//
compound: NC1(C(=O)N[C@@H](CCO)c2ccc(Cl)cc2)CCN(c2ncnc3[nH]ccc23)CC1 [Capivasertib] + Cn1cnc2c(F)c(Nc3ccc(Br)cc3Cl)c(C(=O)NOCCO)cc21 [Selumetinib] (first compound max 10 µM, 7x7, partner max 10 µM)
category.label: high bracket
//
compound: CCN(CCO)CCCOc1ccc2c(Nc3cc(CC(=O)Nc4cccc(F)c4)[nH]n3)ncnc2c1 [AZD2811] + C[C@@H]1COCCN1C2=NC(=NC(=C2)C3(CC3)[S@](=N)(=O)C)C4=C5C=CNC5=NC=C4 [AZD6738] (first compound max 1 µM, 7x7, partner max 10 µM)
category.label: low bracket
//
compound: CN(CCO)CC[C@H](CSc1ccccc1)Nc1ccc(S(=O)(=O)NC(=O)c2ccc(N3CCC([C@@H](O)c4ccccc4-c4ccc(Cl)cc4)CC3)cc2)cc1S(=O)(=O)C(F)(F)F [AZD4320] + CCN(CCO)CCCOc1ccc2c(Nc3cc(CC(=O)Nc4cccc(F)c4)[nH]n3)ncnc2c1 [AZD2811] (first compound max 1 µM, 7x7, partner max 1 µM)
category.label: low bracket
//
compound: COc1nnc2ccc(N3CCC(c4ccc(OCCN5CCN(C)C(=O)[C@H]5C)cc4)CC3)nn12 [AZD5153] + C=CCn1c(=O)c2cnc(Nc3ccc(N4CCN(C)CC4)cc3)nc2n1-c1cccc(C(C)(C)O)n1 [AZD1775] (first compound max 1 µM, partner max 1 µM)
category.label: low bracket
//
compound: CCN(CCO)CCCOc1ccc2c(Nc3cc(CC(=O)Nc4cccc(F)c4)[nH]n3)ncnc2c1 [AZD2811] + O=C(c1cc(Cc2n[nH]c(=O)c3ccccc23)ccc1F)N1CCN(C(=O)C2CC2)CC1 [Olaparib] (first compound max 1 µM, 7x7, partner max 10 µM)
category.label: middle bracket
//
compound: CS(=O)(=O)CCNCc1ccc(-c2ccc3ncnc(Nc4ccc(OCc5cccc(F)c5)c(Cl)c4)c3c2)o1 [Lapatinib] + Cn1cnc2c(F)c(Nc3ccc(Br)cc3Cl)c(C(=O)NOCCO)cc21 [Selumetinib] (first compound max 10 µM, 7x7, partner max 10 µM)
category.label: middle bracket

Incoming: Note: place this compound into its band. Item: Cc1c2c(nn1C)CSCc1cc(n(C)n1)CSc1cc(c3ccccc3c1)OCCCc1c(C(=O)O)n(C)c3c-2c(Cl)ccc13 [AZD5991] + CCN(CCO)CCCOc1ccc2c(Nc3cc(CC(=O)Nc4cccc(F)c4)[nH]n3)ncnc2c1 [AZD2811] (first compound max 1 µM, 7x7, partner max 1 µM)
Outgoing: high bracket

Incoming: Also, Cc1c2c(nn1C)CSCc1cc(n(C)n1)CSc1cc(c3ccccc3c1)OCCCc1c(C(=O)O)n(C)c3c-2c(Cl)ccc13 [AZD5991] + Nc1ccn([C@@H]2O[C@H](CO)[C@@H](O)C2(F)F)c(=O)n1 [Gemcitabine] (first compound max 1 µM, 7x7, partner max 0.3 µM) please.
Outgoing: middle bracket

Incoming: Also, CN(CCO)CC[C@H](CSc1ccccc1)Nc1ccc(S(=O)(=O)NC(=O)c2ccc(N3CCC([C@@H](O)c4ccccc4-c4ccc(Cl)cc4)CC3)cc2)cc1S(=O)(=O)C(F)(F)F [AZD4320] + Cn1cnc2c(F)c(Nc3ccc(Br)cc3Cl)c(C(=O)NOCCO)cc21 [Selumetinib] (first compound max 1 µM, 7x7, partner max 3 µM) please.
Outgoing: high bracket
